Molecular target: human mGluR5d (Homo sapiens, UniProt P41594)
Construct: It is kept under hygromycin B and Zeocin selection; The separate IP3 assay names GHEK cells
Sequence (P41594 21-942 isoform P41594-3 limits assumed): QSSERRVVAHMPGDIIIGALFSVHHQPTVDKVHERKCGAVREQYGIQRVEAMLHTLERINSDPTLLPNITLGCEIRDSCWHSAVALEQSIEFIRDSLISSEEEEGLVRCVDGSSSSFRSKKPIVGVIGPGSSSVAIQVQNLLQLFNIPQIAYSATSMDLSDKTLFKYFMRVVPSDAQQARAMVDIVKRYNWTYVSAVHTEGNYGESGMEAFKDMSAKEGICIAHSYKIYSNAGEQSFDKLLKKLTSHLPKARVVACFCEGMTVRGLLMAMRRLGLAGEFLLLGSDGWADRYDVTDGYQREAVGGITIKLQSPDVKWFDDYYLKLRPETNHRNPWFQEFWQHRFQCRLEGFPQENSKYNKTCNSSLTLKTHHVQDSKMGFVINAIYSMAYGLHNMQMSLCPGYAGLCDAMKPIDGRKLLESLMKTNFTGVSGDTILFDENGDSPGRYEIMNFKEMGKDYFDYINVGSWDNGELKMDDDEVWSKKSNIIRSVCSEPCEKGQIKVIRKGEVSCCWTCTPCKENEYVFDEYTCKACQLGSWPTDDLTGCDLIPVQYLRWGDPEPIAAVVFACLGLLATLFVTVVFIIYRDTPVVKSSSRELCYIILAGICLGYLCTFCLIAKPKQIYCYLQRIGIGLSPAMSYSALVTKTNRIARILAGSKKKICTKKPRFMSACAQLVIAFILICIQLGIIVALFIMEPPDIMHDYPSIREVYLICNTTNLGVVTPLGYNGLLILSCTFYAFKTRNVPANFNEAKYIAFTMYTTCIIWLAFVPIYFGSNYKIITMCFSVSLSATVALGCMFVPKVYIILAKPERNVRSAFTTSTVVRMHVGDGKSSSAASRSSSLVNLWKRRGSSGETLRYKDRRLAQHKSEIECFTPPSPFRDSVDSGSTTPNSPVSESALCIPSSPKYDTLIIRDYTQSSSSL
Assay: FLIPR assay, mGluR5 antagonism (intracellular calcium mobilization)
Conditions: cells expressing human mGluR5d; fluo-3 calcium signal; read-out: FLIPR hmGluR5d
pIC50: −log10 of the molar value.
PARAMETER MEASURED: pIC50

Worked examples, 6 compounds total:
{"columns": ["COMPOUND SMILES", "pIC50"],
 "data": [
  ["Cn1c(-c2cn[nH]c(=O)c2)nnc1N1C[C@H]2C[C@H]2[C@@H]1c1cc(-c2cccc(Cl)c2)on1", 7.34],
  ["Cc1cccc(-c2cc([C@H]3C[C@H]4C[C@H]4N3c3nnc(-c4ccn(C)c(=O)c4)n3C)no2)c1", 7.14],
  ["Cc1cccc(-c2cc([C@H]3C[C@H]4C[C@H]4N3c3nnc(-c4cc[nH]c(=O)n4)n3C)no2)c1", 6.88],
  ["Cn1c(-c2ccn(C)c(=O)c2)nnc1N1[C@@H](c2cc(-c3cccc(Cl)c3)on2)C[C@H]2C[C@H]21", 7.41],
  ["Cn1c(-c2ccc(C(N)=O)cc2)nnc1N1[C@@H](c2cc(-c3cccc(Cl)c3)on2)C[C@H]2C[C@H]21", 7.85],
  ["Cc1cccc(-c2cc([C@H]3C[C@H]4C[C@H]4N3c3nnc(-c4cn[nH]c(=O)c4)n3C)no2)c1", 7.15]
]}

[a] Cn1c(-c2ccn(C)c(=O)c2)nnc1N1C[C@H]2C[C@H]2[C@@H]1c1cc(-c2cccc(Cl)c2)on1
[b] Cn1c(-c2cn[nH]c(=O)c2)nnc1N1[C@@H](c2cc(-c3cccc(Cl)c3)on2)C[C@H]2C[C@H]21
Qu. Could you tell me which of a and b has the lower pIC50 reading? Selection: enter the item's label.
Ans. a
(a: 7.29, b: 7.49)
